B1: library; a variant is named by its letters at N, in order (parent)
chain: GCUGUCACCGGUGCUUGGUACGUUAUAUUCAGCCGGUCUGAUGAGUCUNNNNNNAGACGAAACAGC

# Variants of: B1
# assay.overview: normalized RNA/DNA level without ligand (relative to sTRSVctl = 100) (log10 (% of sTRSVctl)); HEK293T overexpressing SLC46A1; higher = less ribozyme self-cleavage, higher mRNA level
# condition.label: without (6R,S)-folinic acid; ligand present: no
recorded.metric: normalized RNA/DNA level without ligand (log10)
Give bare numbers.

Take a look at these entries with their results.
UUCGCA :: 1.99
GCUUAG :: 1.97
GGACCC :: 2.04
CAUACA :: 2
GUCGGU :: 2.02

Take each entry in turn and give its normalized RNA/DNA level without ligand (log10).
1. CCUUGG
2. GUCACA

Result:
2.05
1.99

Data provenance is the supplement of paper PMC6757056.
